Reference source for all entries: PubChem BioAssay (EPA / NIEHS)

Read-out: Thrombomodulin, THBD (gene 7056)
measurement-notes: BSK_CASM3C_Thrombomodulin: BioMAP Diversity Plus: CASM3C Assay for Thrombomodulin Biomarker Activity (AID 2283051);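 note: thrombomodulin protein level measured by ELISA 24 h after dosing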
condition-summary: primary human coronary artery smooth muscle cells; actives raise or lower the signal
The source made the active and inactive calls. Rule for the calls: active = hit-call score of the fitted dose curve at least 0.9, where 1 is the maximum; inactive = score below 0.9.
endpoint-label: AC50

Study these solved cases before continuing.
Fc1ccc(Oc2ccnc3cc(Cl)cc(Cl)c23)cc1 = 18.6 µM (active)
OC(c1ccc(Cl)cc1)(c1cncnc1)c1ccccc1Cl (configuration not stated) = 16.6 µM (active)
CCNc1nc(Cl)nc(NCC)n1 = inactive
N#CC(CCc1ccc(Cl)cc1)(Cn1cncn1)c1ccccc1 (configuration not stated) = inactive
CC(Oc1ccc(Cl)cc1Cl)C(=O)O (configuration not stated) = inactive
Cc1cc(Cl)ccc1OCC(=O)O = inactive
Cc1ccc(-c2c(Cl)nc(C#N)n2S(=O)(=O)N(C)C)cc1 = inactive
COP(=S)(OC)Oc1nc(Cl)c(Cl)cc1Cl = 16.1 µM (active)
COc1nc(NC(C)C)nc(NC(C)C)n1 = inactive
COC(=O)c1ccccc1C(=O)OC = inactive

Next item in the queue.
What value of measured AC50 is listed for CS/C(C)=N/OC(=O)N(C)SN(C)C(=O)O/N=C(\C)SC ?
inactive
